Listed below: switch fluorescence ratio values for each entry.
Tested on: ATP;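 further: ATP exposure 15 min at 22 °C before imaging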
test.details: switch fluorescence ratio, 500 uM ATP over buffer (Cy3 cluster intensity, sum of 5 cycles each) (fold (ratio)); higher = stronger signal-on switching upon ATP binding; sequences stand for … in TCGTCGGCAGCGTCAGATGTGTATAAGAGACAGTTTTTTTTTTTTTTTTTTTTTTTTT…TC
experimental.setup: aptamer strand: ATP DNA aptamer (quencher-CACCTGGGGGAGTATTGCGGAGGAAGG + anchor), 100 nM annealed; ATP concentration: 500 uM
API note: the answer field is a bare number with no unit suffix.

| macromolecule.sequence | val |
| --- | --- |
| ATTGGAGGGC | 0.96 |
| GAGATATTGT | 1.03 |
| ATAGGGAATG | 0.999 |
| ATGGGGAGTT | 0.972 |

In one line, give reported switch fluorescence ratio of the entry CAGGTTGAAC . 0.987

Tell me its switch fluorescence ratio given ATCCTTGATA as the entry. 1.03

Let me know recorded switch fluorescence ratio for AGTCCCAAGG , thanks. 1.13

Determine from records and report switch fluorescence ratio for GGATGGTGGG 1.01

----------
Measured switch fluorescence ratio, listed per entry.
Tested on: ATP;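 further: ATP exposure 15 min at 22 °C before imaging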
test.details: switch fluorescence ratio, 500 uM ATP over buffer (Cy3 cluster intensity, sum of 5 cycles each) (fold (ratio)); higher = stronger signal-on switching upon ATP binding; sequences stand for … in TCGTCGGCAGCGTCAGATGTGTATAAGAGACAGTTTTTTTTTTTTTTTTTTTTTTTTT…TC
experimental.setup: aptamer strand: ATP DNA aptamer (quencher-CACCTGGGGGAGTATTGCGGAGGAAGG + anchor), 100 nM annealed; ATP concentration: 500 uM
Hey, just send me the number, nothing else.

| macromolecule.sequence | switch fluorescence ratio |
| --- | --- |
| AAAACACAGA | 1.15 |
| TTCTAACCCC | 1.12 |
| CGGGAGATTA | 0.987 |
| TTTTAAAGCT | 1.09 |
| GGCTTGGCGT | 0.98 |

Could you please provide reported switch fluorescence ratio for ATAGTGGAGA ? Thanks! 1.01

Note switch fluorescence ratio for the sequence shown: GAGTAAGTTT 1.01

Provide one value: measured switch fluorescence ratio of AGGAAATATT 1.01

Identify measured switch fluorescence ratio corresponding to TCCAGGACCA 1.03

Please give the documented switch fluorescence ratio of AAGTACCTAT 1.27

For the sequence AACTTGTTAG , give its reported switch fluorescence ratio. 1.01

Dear colleague, please send me the reported switch fluorescence ratio for TTTTGATTTA when you can. 1

Read off the recorded switch fluorescence ratio for CGTAGGGGGA 0.984

# return recorded switch fluorescence ratio for input TTTCCCGCTC 1.93

Give the reported switch fluorescence ratio for this sequence. CGACTGCAGT 1.19

Please report the measured switch fluorescence ratio for ATTGGGGCGG 0.984

----------
Tested on: ATP;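 further: ATP exposure 15 min at 22 °C before imaging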
test.details: switch fluorescence ratio, 500 uM ATP over buffer (Cy3 cluster intensity, sum of 5 cycles each) (fold (ratio)); higher = stronger signal-on switching upon ATP binding; sequences stand for … in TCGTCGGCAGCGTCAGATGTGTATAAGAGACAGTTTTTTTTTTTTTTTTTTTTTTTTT…TC
experimental.setup: aptamer strand: ATP DNA aptamer (quencher-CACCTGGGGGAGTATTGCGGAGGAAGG + anchor), 100 nM annealed; ATP concentration: 500 uM
Below is a list of entries, each paired with its recorded switch fluorescence ratio value.
Field format: numeric only.

Please review the following examples before continuing.
| macromolecule.sequence | experimental.system | switch fluorescence ratio |
| --- | --- | --- |
| AACGGGACCT | ATP | 1.33 |
| GGCTGCAATG | ATP | 1.39 |

Please list switch fluorescence ratio recorded for the sequence ATTTTTCTTC 1.04

Provide only the value of recorded switch fluorescence ratio for ATCGAAAGGG 1.01

Let me know recorded switch fluorescence ratio for AATTAGACGG , thanks. 1.03

Give the reported switch fluorescence ratio for this sequence. TGAGATGGGG 0.99

Write down switch fluorescence ratio measured for item TTGCTAAGCG 1.02

Consider the sequence TTGGTTGAAA and give its recorded switch fluorescence ratio. 1.01

Return switch fluorescence ratio for the following sequence: ATGGTTCCCC 1.03

Provide measured switch fluorescence ratio value, entry: GGTCCTGCGG 1.01

Could you please provide reported switch fluorescence ratio for AGTAACCAAG ? Thanks! 1.01

Report switch fluorescence ratio, nothing else, for this sequence: GTTGGGAGTC 1.01

Identify measured switch fluorescence ratio associated with CCTAATGAA 1.2

Give a short answer stating reported switch fluorescence ratio for ATCATATGGA . 0.985

Give the measured switch fluorescence ratio for CTCAGGGGAG 1.03
